Test system: MT4
Assay comment: Compound was tested for reduction of the viability of mock infected MT-4 cell in test-I
Format: functional
Experimental context: Homo sapiens
Reported metric: CC50

[[record]]
smiles = "C[C@H](NC(=O)[C@H](CCCN=C(N)N)NC(=O)[C@@H](N)CCCN=C(N)N)C(=O)N[C@H]1CSSC[C@@H](C(=O)N[C@@H](CCCN=C(N)N)C(=O)O)NC(=O)[C@H](CCCNC(N)=O)NC(=O)[C@H](CCCN=C(N)N)NC(=O)[C@H](Cc2ccc(O)cc2)NC(=O)[C@@H]2CCCN2C(=O)[C@@H](CCCCN)NC(=O)[C@H](CCCCN)NC(=O)[C@H](CCCN=C(N)N)NC(=O)[C@H](Cc2ccc(O)cc2)NC1=O"
result = "> 80 µM"


Now let's try a different one.
Quick note, CC50 for NCCCC[C@@H]1NC(=O)[C@H](CCCN=C(N)N)NC(=O)[C@H](Cc2ccc(O)cc2)NC(=O)[C@@H](NC(=O)[C@H](Cc2ccc3ccccc3c2)NC(=O)[C@H](CCCNC(N)=O)NC(=O)[C@@H](N)CCCN=C(N)N)CSSC[C@@H](C(=O)N[C@@H](CCCN=C(N)N)C(=O)O)NC(=O)[C@H](CCCNC(N)=O)NC(=O)[C@H](CCCN=C(N)N)NC(=O)[C@H](Cc2ccc(O)cc2)NC(=O)[C@@H]2CCCN2C(=O)[C@@H](CCCCN)NC1=O landed at > 80 µM

* * *

Tested on: MT4
Assay comment: Compound was tested for reduction of the viability of mock infected MT-4 cell in test-I
Type: functional
Experimental context: Homo sapiens
Please go through the items and note down their CC50.
Numbers only, in µM.

[[record]]
smiles = "C[C@@H]1NC(=O)[C@H](CCCN=C(N)N)NC(=O)[C@H](Cc2ccc(O)cc2)NC(=O)[C@@H]2CCCN2C(=O)[C@@H](CCCCN)NC(=O)[C@H](CCCCN)NC(=O)[C@H](CCCN=C(N)N)NC(=O)[C@H](Cc2ccc(O)cc2)NC(=O)[C@@H](NC(=O)[C@H](Cc2ccc3ccccc3c2)NC(=O)[C@H](CCCN=C(N)N)NC(=O)[C@@H](N)CCCN=C(N)N)CSSC[C@@H](C(=O)N[C@@H](CCCN=C(N)N)C(=O)O)NC1=O"
experimental_target = "MT4"
reported_metric = "CC50"
quantitative_readout = 55


Readout CC50 for Cc1cn([C@H]2C[C@H](N=[N+]=[N-])[C@@H](CO)O2)c(=O)[nH]c1=O , test system MT4, was 190

* * *

System: MT4
Assay comment: Compound was tested for reduction of the viability of mock infected MT-4 cell in test-I
Type: functional
Experimental context: Homo sapiens
Where a SMILES comes first, the peptide text is derived from it. Bridges are numbered along the chain shown (N, C = ends). [ ]: non-standard residue; d: D form. 2Nal = N[C@@H](Cc1ccc2ccccc2c1)C(=O)O; Cit = NC(=O)NCCC[C@H](N)C(=O)O
Please go through the items and note down their CC50.

[[record]]
compound = "C[C@@H]1NC(=O)[C@@H](CCCCN)NC(=O)[C@H](CCCCN)NC(=O)[C@H](CCCN=C(N)N)NC(=O)[C@H](Cc2ccc(O)cc2)NC(=O)[C@@H](NC(=O)[C@H](Cc2ccc3ccccc3c2)NC(=O)[C@H](CCCN=C(N)N)NC(=O)[C@@H](N)CCCN=C(N)N)CSSC[C@@H](C(=O)N[C@@H](CCCN=C(N)N)C(=O)O)NC(=O)[C@H](CCCNC(N)=O)NC(=O)[C@H](CCCN=C(N)N)NC(=O)[C@H](Cc2ccc(O)cc2)NC1=O (H-RR[2Nal]CYRK[dK]AYR[Cit]CR-OH; disulfide 4-13)"
reported_metric = "CC50"
result = "> 80 µM"


Now let's try a different one.
Quick note, CC50 for NCCCC[C@@H]1NC(=O)[C@H](CCCN=C(N)N)NC(=O)[C@H](Cc2ccc(O)cc2)NC(=O)[C@@H](NC(=O)[C@H](Cc2ccc3ccccc3c2)NC(=O)[C@H](CCCN=C(N)N)NC(=O)[C@@H](N)CCCNC(N)=O)CSSC[C@@H](C(=O)N[C@@H](CCCN=C(N)N)C(=O)O)NC(=O)[C@H](CCCNC(N)=O)NC(=O)[C@H](CCCN=C(N)N)NC(=O)[C@H](Cc2ccc(O)cc2)NC(=O)[C@@H]2CCCN2C(=O)[C@@H](CCCCN)NC1=O landed at > 80 µM

* * *

Tested on: MT4
Assay comment: Compound was tested for reduction of the viability of mock infected MT-4 cell in test-I
Format: functional
Experimental context: Homo sapiens
Reported metric: CC50

// known answers, use as guide
[[record]]
compound = "C[C@@H]1NC(=O)[C@H](Cc2ccc(O)cc2)NC(=O)[C@@H](NC(=O)[C@H](Cc2ccc3ccccc3c2)NC(=O)[C@H](CCCN=C(N)N)NC(=O)[C@@H](N)CCCN=C(N)N)CSSC[C@@H](C(=O)N[C@@H](CCCN=C(N)N)C(=O)O)NC(=O)[C@H](CCCNC(N)=O)NC(=O)[C@H](CCCN=C(N)N)NC(=O)[C@H](Cc2ccc(O)cc2)NC(=O)[C@@H]2CCCN2C(=O)[C@@H](CCCCN)NC(=O)[C@H](CCCCN)NC1=O"
result = "> 40 µM"

[[record]]
compound = "C[C@H](NC(=O)[C@@H](N)CCCN=C(N)N)C(=O)N[C@@H](Cc1ccc2ccccc2c1)C(=O)N[C@H]1CSSC[C@@H](C(=O)N[C@@H](CCCN=C(N)N)C(=O)O)NC(=O)[C@H](CCCNC(N)=O)NC(=O)[C@H](CCCN=C(N)N)NC(=O)[C@H](Cc2ccc(O)cc2)NC(=O)[C@@H]2CCCN2C(=O)[C@@H](CCCCN)NC(=O)[C@H](CCCCN)NC(=O)[C@H](CCCN=C(N)N)NC(=O)[C@H](Cc2ccc(O)cc2)NC1=O"
result = "> 80 µM"


Now let's try a different one.
Readout CC50 for CC(N)C(=O)N[C@@H](CCCN=C(N)N)C(=O)N[C@@H](Cc1ccc2ccccc2c1)C(=O)N[C@H]1CSSC[C@@H](C(=O)N[C@@H](CCCN=C(N)N)C(=O)O)NC(=O)[C@H](CCCNC(N)=O)NC(=O)[C@H](CCCN=C(N)N)NC(=O)[C@H](Cc2ccc(O)cc2)NC(=O)[C@@H]2CCCN2C(=O)[C@@H](CCCCN)NC(=O)[C@H](CCCCN)NC(=O)[C@H](CCCN=C(N)N)NC(=O)[C@H](Cc2ccc(O)cc2)NC1=O (stereo partly drawn) , test system MT4, was > 40 µM

* * *

Please go through the items and note down their CC50.
Test system: MT4
Assay comment: Compound was tested for reduction of the viability of mock infected MT-4 cell in test-I
Format: functional
Experimental context: Homo sapiens
Where a SMILES comes first, the peptide text is derived from it. Bridges are numbered along the chain shown (N, C = ends). [ ]: non-standard residue; d: D form. 2Nal = N[C@@H](Cc1ccc2ccccc2c1)C(=O)O; Cit = NC(=O)NCCC[C@H](N)C(=O)O

// known answers, use as guide
[[record]]
compound = "C[C@H](NC(=O)[C@@H]1CSSC[C@H](NC(=O)[C@H](Cc2ccc3ccccc3c2)NC(=O)[C@H](CCCN=C(N)N)NC(=O)[C@@H](N)CCCN=C(N)N)C(=O)N[C@@H](Cc2ccc(O)cc2)C(=O)N[C@@H](CCCN=C(N)N)C(=O)N[C@@H](CCCCN)C(=O)N[C@H](CCCCN)C(=O)N2CCC[C@H]2C(=O)N[C@@H](Cc2ccc(O)cc2)C(=O)N[C@@H](CCCN=C(N)N)C(=O)N[C@@H](CCCNC(N)=O)C(=O)N1)C(=O)O"
result = "> 80 µM"

[[record]]
compound = "NCCCC[C@@H]1NC(=O)[C@H](CCCN=C(N)N)NC(=O)[C@H](Cc2ccc(O)cc2)NC(=O)[C@@H](NC(=O)[C@H](Cc2ccc3ccccc3c2)NC(=O)[C@H](CCCN=C(N)N)NC(=O)[C@@H](N)CCCN=C(N)N)CSSC[C@@H](C(=O)N[C@@H](CCCN=C(N)N)C(=O)O)NC(=O)[C@H](CCCNC(N)=O)NC(=O)[C@H](CCCN=C(N)N)NC(=O)[C@H](Cc2ccc(O)cc2)NC(=O)[C@@H]2CCCN2C(=O)[C@@H](CCCCN)NC1=O (H-RR[2Nal]CYRK[dK]PYR[Cit]CR-OH; disulfide 4-13)"
result = "> 1 µM"

[[record]]
compound = "C[C@@H]1NC(=O)[C@@H](NC(=O)[C@H](Cc2ccc3ccccc3c2)NC(=O)[C@H](CCCN=C(N)N)NC(=O)[C@@H](N)CCCN=C(N)N)CSSC[C@@H](C(=O)N[C@@H](CCCN=C(N)N)C(=O)O)NC(=O)[C@H](CCCNC(N)=O)NC(=O)[C@H](CCCN=C(N)N)NC(=O)[C@H](Cc2ccc(O)cc2)NC(=O)[C@@H]2CCCN2C(=O)[C@@H](CCCCN)NC(=O)[C@H](CCCCN)NC(=O)[C@H](CCCN=C(N)N)NC1=O"
result = "> 80 µM"


Answer for every listed entry: what is its CC50? The entries follow.
1. C[C@@H]1NC(=O)[C@@H]2CCCN2C(=O)[C@@H](CCCCN)NC(=O)[C@H](CCCCN)NC(=O)[C@H](CCCN=C(N)N)NC(=O)[C@H](Cc2ccc(O)cc2)NC(=O)[C@@H](NC(=O)[C@H](Cc2ccc3ccccc3c2)NC(=O)[C@H](CCCN=C(N)N)NC(=O)[C@@H](N)CCCN=C(N)N)CSSC[C@@H](C(=O)N[C@@H](CCCN=C(N)N)C(=O)O)NC(=O)[C@H](CCCNC(N)=O)NC(=O)[C@H](CCCN=C(N)N)NC1=O
2. NCCCC[C@@H]1NC(=O)[C@H](CCCN=C(N)N)NC(=O)[C@H](Cc2ccc(O)cc2)NC(=O)[C@@H](NC(=O)[C@H](Cc2ccc3ccccc3c2)NC(=O)[C@H](CCCN=C(N)N)NC(=O)[C@@H](N)CCCN=C(N)N)CSSC[C@@H](C(=O)N[C@@H](CCCN=C(N)N)C(=O)O)NC(=O)[C@H](CCCNC(N)=O)NC(=O)[C@H](CCCN=C(N)N)NC(=O)[C@H](Cc2ccc(O)cc2)NC(=O)[C@@H]2CCCN2C(=O)[C@@H](CCCNC(N)=O)NC1=O

Reply |
1. > 80 µM
2. > 80 µM
